- assay-info: in vivo
- protocol-conditions: BALB/c nude, mouse, in vivo, iv, total radioactivity, % ID/g Lung
property-name: tissue uptake at 4 h (%ID/g)
The figure you give is taken to be in %ID/g; do not add the unit.

# tissue uptake at 4 h (molecule: CC(C)(C)C(=O)CN1C(=O)[C@H](NC(=O)Nc2cccc(C(=O)N[C@@H](CCC(=O)N[C@@H](CCC(=O)N[C@@H](CCC(=O)N[C@@H](CCCCNC(=O)COCCOCCNC(=O)COCCOCCNC(=O)CCC(C(=O)O)N3CCN(CC(=O)O)CCN(CC(=O)O)CCN(CC(=O)O)CC3)C(N)=O)C(=O)O)C(=O)O)C(=O)O)c2)CN(C2CCCCC2)c2ccccc21 (stereo partly shown) [^177Lu-C-4, metal not drawn, reference compound] ) is 0.07
